- Test system: BRO cells
- assay_protocol: In vitro cytotoxicity, MTT assay of cell proliferation
- Type: cell-based, human
- measurement_conditions: Homo sapiens, Melanoma, 72 hr
measurement_label: pIC50
Lab note: report pIC50 as minus log10 of the concentration in molar units, number only.

## Input Fill in: pIC50 of "CO[C@H]1C[C@H](O[C@H]2CC[C@@]3(C)[C@H](CC[C@@H]4[C@@H]3CC[C@]3(C)[C@@H](C5=CC(=O)OC5)[C@@H](OC(C)=O)C[C@]43O)C2)O[C@@H](C)[C@@H]1O" is ___
## Output 8.09

====

Please provide measured IC50 for the entries that follow.
- Tested on: MiaPaca cells
- assay_protocol: In vitro cytotoxicity, MTT assay of cell proliferation
- Type: cell-based, human
- measurement_conditions: Homo sapiens, MIA PaCa-2, Pancreas, 72 hr
Record the value in nM, omitting the unit from your answer.

## Input Any idea what its IC50 is? The compound is "C[C@]12CC[C@H](O)C[C@H]1CC[C@@H]1[C@@H]2CC[C@]2(C)[C@@H](c3ccc(=O)oc3)CC[C@]12O"
## Output 2.1

## Input Now this one: "CO[C@H]1C[C@H](O[C@H]2CC[C@@]3(C)[C@H](CC[C@@H]4[C@@H]3CC[C@]3(C)[C@@H](C5=CC(=O)OC5)[C@@H](OC(C)=O)C[C@]43O)C2)O[C@@H](C)[C@@H]1O"
## Output 14.2
